Below, each of the variants is paired with its reported protein stability index value.
B1: C10orf62 (parent)
chain: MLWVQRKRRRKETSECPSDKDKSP

variants of: B1; assay: protein stability index of a GFP-peptide fusion (GPS, HEK-293T) (PSI 1-6); higher = more stable; settings: c terminus: a fixed tail appended;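 also: lentivirally expressed fusions sorted by FACS into six bins by GFP to DsRed ratio, PSI derived from sequencing read proportions per bin multiplied by bin number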
measured.parameter: protein stability index

{"mutant.code": "S18I", "measurement": 2.41}
{"mutant.code": "K11W", "measurement": 2.45}
{"mutant.code": "C16L", "measurement": 2.53}
{"mutant.code": "L2D", "measurement": 4.88}
{"mutant.code": "K11D", "measurement": 3.46}
{"mutant.code": "K7V", "measurement": 2.69}
{"mutant.code": "S14E", "measurement": 3.2}
{"mutant.code": "M1W", "measurement": 2.83}
{"mutant.code": "S23Q", "measurement": 3.42}
{"mutant.code": "C16V", "measurement": 2.81}
{"mutant.code": "L2A", "measurement": 3.92}
{"mutant.code": "S14T", "measurement": 2.55}
{"mutant.code": "Q5A", "measurement": 3.98}
{"mutant.code": "K11C", "measurement": 2.46}
{"mutant.code": "S18V", "measurement": 2.9}
{"mutant.code": "K7C", "measurement": 2.31}
{"mutant.code": "R6F", "measurement": 3.11}
{"mutant.code": "E12K", "measurement": 3.44}
{"mutant.code": "S14D", "measurement": 3.12}
{"mutant.code": "S18A", "measurement": 3.23}
{"mutant.code": "P24M", "measurement": 2.46}
{"mutant.code": "P24D", "measurement": 3.28}
{"mutant.code": "W3K", "measurement": 4.18}
{"mutant.code": "D19Y", "measurement": 2.99}
{"mutant.code": "D21K", "measurement": 4.07}
{"mutant.code": "P17T", "measurement": 3.08}
{"mutant.code": "K20Q", "measurement": 2.46}
{"mutant.code": "E12M", "measurement": 2.67}
{"mutant.code": "R8Y", "measurement": 3.19}
{"mutant.code": "R8D", "measurement": 3.52}
{"mutant.code": "V4I", "measurement": 2.87}

Every entry's value here was drawn from the supplement of paper PMC10567573.
